# studyTarget: KRAS G12V Ba/F3 (Homo sapiens, UniProt P01116, G12V, cells depend on it)
# Sequence (P01116 whole entry G12V): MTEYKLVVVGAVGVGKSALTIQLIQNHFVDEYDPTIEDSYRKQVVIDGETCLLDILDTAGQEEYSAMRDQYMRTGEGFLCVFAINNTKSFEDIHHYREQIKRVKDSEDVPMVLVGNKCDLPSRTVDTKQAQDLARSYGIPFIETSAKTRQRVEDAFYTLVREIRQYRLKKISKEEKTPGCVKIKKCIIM
# assayInfo: Ba/F3 proliferation assay, KRAS G12V
# Format: cell-based
# studyConditions: 72 h, AlamarBlue, read-out: KRAS G12V Ba/F3 IC50
Entries whose GI50 is below 0.07 µM take Yes; entries at or above 0.07 µM take No.

Given the entry `COC[C@H](C)Nc1cc(O[C@@H](C)[C@@H]2CCCN2C)nc(-c2onc3c2CCC[C@@]32CCCc3sc(N)c(C#N)c32)n1` , would its reported GI50 be below 0.07 µM?
Yes

Given the entry `C[C@H](Oc1cc(N(C)CCN(C)C)nc(-c2noc3c2CCC[C@@]32CCCc3sc(N)c(C#N)c32)n1)[C@@H]1CCCN1C` , would its reported GI50 be below 0.07 µM?
No

Given the entry `C[C@H](Oc1cc(O[C@H]2CCOC2)nc(-c2noc3c2CCC[C@@]32CCCc3sc(N)c(C#N)c32)n1)[C@@H]1CCCN1C` , would its reported GI50 be below 0.07 µM?
Yes

Given the entry `C[C@H](Oc1cc(Oc2ccon2)nc(-c2noc3c2CCC[C@@]32CCCc3sc(N)c(C#N)c32)n1)[C@@H]1CCCN1C` , would its reported GI50 be below 0.07 µM?
Yes

Given the entry `C[C@H](Oc1cc(O[C@@H]2CNC[C@@H]2F)nc(-c2noc3c2CCC[C@@]32CCCc3sc(N)c(C#N)c32)n1)[C@@H]1CCCN1C` , would its reported GI50 be below 0.07 µM?
Yes

Given the entry `C[C@H](Oc1cc(Nc2cccnn2)nc(-c2noc3c2CCC[C@@]32CCCc3sc(N)c(C#N)c32)n1)[C@@H]1CCCN1C` , would its reported GI50 be below 0.07 µM?
Yes

Sourced from patent US20250129095A1
